Values from ChEMBL document CHEMBL4371037

MEASUREMENT_NOTES: Drug level in naive rat spleen at 5 mg/kg, iv administered as bolus dose followed by 5 ml/kg/hr iv infusion for 4 hrs
Assay type: ADME, organism-based
MEASUREMENT_CONTEXT: read-out: Drug uptake
MEASURE: concentration at 4 h (ng/g)
Expressed in ng/g, but write only the number.

Challenge: Bench note: what concentration at 4 h did O=C(Nc1ccnnc1)c1cc(N2CCOCC2)ccc1OCc1ccccc1 show?
Response given: 1680

###

MEASUREMENT_NOTES: Drug level in naive rat kidney at 5 mg/kg, iv administered as bolus dose followed by 5 ml/kg/hr iv infusion for 4 hrs
Format: ADME, organism-based
MEASUREMENT_CONTEXT: read-out: Drug uptake
MEASURE: concentration at 4 h (ng/g)
Expressed in ng/g, but write only the number.

Challenge: Bench note: what concentration at 4 h did O=C(Nc1ccnnc1)c1cc(N2CCOCC2)ccc1OCc1ccccc1 show?
Response given: 3970
